Reference for the values: patent US20130230533A1

# Assay system: T1, Monomeric monkey CD48-mmH (monkey)
# T1 construct: Soluble monkey CD48 with a myc-myc-hexa-histidine C-terminal tag; the whole entry is the construct; also called mfCD48-mmH
# T1 chain: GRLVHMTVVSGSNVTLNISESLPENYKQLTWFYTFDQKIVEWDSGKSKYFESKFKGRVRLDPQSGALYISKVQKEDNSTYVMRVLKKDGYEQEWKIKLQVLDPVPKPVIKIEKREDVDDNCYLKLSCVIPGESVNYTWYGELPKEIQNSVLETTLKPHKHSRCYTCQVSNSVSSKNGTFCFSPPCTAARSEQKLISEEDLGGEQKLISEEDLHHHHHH
# Assay method text: SPR (Biacore), antibody captured by anti-Fc, CD48 in solution, 37 C
# Method: Measurements were conducted on a T100-2 BIACORE™ instrument (Biacore Life Sciences division of GE Healthcare, Piscataway, N.J.). […] The soluble CD48 was applied to the flow cell in separate injections at different concentrations, and kinetic association (kₐ) and dissociation (kd) rate constants were determined by fits to the kinetic binding data using Biacore software. […]
Measure: kon (M⁻¹ s⁻¹)

binder="H4H1775P (antibody, human IgG4, V domains shown, Human IgG4 Fc (H4H)) VH: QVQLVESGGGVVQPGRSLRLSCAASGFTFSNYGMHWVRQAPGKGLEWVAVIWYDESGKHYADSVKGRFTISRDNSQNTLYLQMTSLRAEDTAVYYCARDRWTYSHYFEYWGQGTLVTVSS VL: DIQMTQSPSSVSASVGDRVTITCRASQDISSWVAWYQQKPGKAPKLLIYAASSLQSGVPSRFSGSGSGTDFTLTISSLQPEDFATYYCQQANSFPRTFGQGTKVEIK" measure=kon result_unit="M⁻¹ s⁻¹" observed_measurement=260000
binder="H4H1713N (antibody, V domains shown, Human IgG4 Fc (H4H)) VH: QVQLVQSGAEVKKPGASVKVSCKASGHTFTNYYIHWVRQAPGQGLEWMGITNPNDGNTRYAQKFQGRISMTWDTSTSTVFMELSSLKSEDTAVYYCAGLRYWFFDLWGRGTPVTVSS VL: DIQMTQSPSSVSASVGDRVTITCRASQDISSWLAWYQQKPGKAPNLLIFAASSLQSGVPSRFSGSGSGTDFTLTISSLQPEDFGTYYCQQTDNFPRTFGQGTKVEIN" measure=kon result_unit="M⁻¹ s⁻¹" observed_measurement=320000
binder="H4H1781P (antibody, human IgG4, V domains shown, Human IgG4 Fc (H4H)) VH: QVQLVESGGGVVQPGRSLRLSCAASGFTFSNYGMHWVRQAPGKGLEWVAVIWYDDSNKNYADSVKGRFTISRDNSKNTLYLQMNSLRVEDTAVYYCARDRWTYSHFFEYWGQGTLVTVSS VL: DIQMTQSPSSVSASVGDRVTITCRASQGISSWLAWYQQKPGKAPNLLIYAASSLQSGVPSRFGGSGSGTDFSLTISGLQPEDFATYYCQQANSFPRTFGQGTKVEIK" measure=kon result_unit="M⁻¹ s⁻¹" observed_measurement=350000
